target_entity: Chromobox protein homolog 7 (Homo sapiens) (UniProt O95931)
Sequence (O95931 whole entry, looked up): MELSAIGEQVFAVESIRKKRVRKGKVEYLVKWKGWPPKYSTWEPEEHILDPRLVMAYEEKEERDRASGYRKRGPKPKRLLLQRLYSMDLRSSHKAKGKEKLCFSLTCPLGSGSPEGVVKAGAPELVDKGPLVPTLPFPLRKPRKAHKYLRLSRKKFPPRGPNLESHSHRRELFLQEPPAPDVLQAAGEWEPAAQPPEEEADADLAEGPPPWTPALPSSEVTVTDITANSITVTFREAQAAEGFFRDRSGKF
assay_info: blockers of CBX7 binding to H3K27me3 peptide – biochemical, AlphaScreen, primary screen (AID 1224903)
experimental_conditions: AlphaScreen His6-CBX7 / biotin-H3K27me3 peptide binding, stronger effect = lower value; measured here: z-score of CBX7 signal
About 720 (1.1%) of roughly 66,000 compounds were called active. The list comes from a sample in which actives are over-represented; it also holds close analogues and randomly drawn compounds.
Please respond with reported z-score for every item in the list.
Could you respond with only the numeric value?

Data request: Entry Cc1ccc(C(=O)N2CC(=O)Nc3ccc(F)cc3C2c2ccc(F)cc2)cc1 (stereo unspecified) has what z-score?
Data returned: 0.159

Data request: Entry COC(CNC(=O)c1csc2c1CCCCC2)OC has what z-score?
Data returned: -2.13

Data request: Entry Cc1cc(=O)n2nc(N3CCCC(C(=O)N4CCCCC4)C3)sc2n1 (stereo unspecified) has what z-score?
Data returned: 0.832

Data request: Entry COc1ccc(-c2noc(CCC(=O)NCc3cccc(OC)c3)n2)cc1 has what z-score?
Data returned: -1.96

Data request: Entry Cc1ccc(Cn2nnc3c(=O)n(Cc4c(F)cccc4Cl)cnc32)cc1 has what z-score?
Data returned: -2.23

Data request: Entry COCCNC(=O)c1ccc2c(c1)N=C(C)c1cc(Br)ccc1S2 has what z-score?
Data returned: -0.23
